Biological target: BCL2 F104I (Homo sapiens, UniProt P10415, F104I)
Experiment: TR-FRET competitive binding assay, BCL2 F104I
Details: Ki determined from IC50, read-out: TR_FRET EKI_Bcl2 F104I
Property Measured: Ki (nM)

Field: example entries. Status: answers known.
Cc1c(C(=O)N(c2ccccc2)c2cc(C#N)n(CCO)c2C)cc(-c2cc3c(cc2C(=O)N2Cc4ccccc4C[C@H]2C)CN(C(=O)Cc2ccccc2)CC3)n1C [Example 4] = 11.9
Cc1c(N(C(=O)c2cc(-c3cc4c(cc3C(=O)N3Cc5ccccc5C[C@H]3CN3CCCCC3)CN(C(=O)Cc3ccc(OCCN5CCOC(C)C5)cc3F)CC4)n(C)c2C)c2ccc(O)cc2)cc(C#N)n1C (single isomer, unassigned) [Example 108] = 0.19

(1) Cc1c(N(C(=O)c2cc(-c3cc4c(cc3C(=O)N3Cc5ccccc5C[C@H]3CN3CCCCC3)CN(C(=O)Cc3ccc(OCCN5CCN(CCF)CC5)cc3F)CC4)n(C)c2C)c2ccc(O)cc2)cc(C#N)n1C [Example 117]
(2) Cc1c(N(C(=O)c2cc(-c3cc4c(cc3C(=O)N3Cc5ccccc5C[C@H]3C)CN(C(=O)C(F)(F)c3ccccc3)CC4)n(C)c2C)c2ccc(O)cc2)cc(C#N)n1C [Example 18]
(3) Cc1c(N(C(=O)c2cc(-c3cc4c(cc3C(=O)N3Cc5ccccc5C[C@H]3C)CN(C(=O)Cc3ccc(C5CCN(CC(F)F)CC5)cc3F)CC4)n(C)c2C)c2ccc(O)cc2)cc(C#N)n1C [Example 48]
Rank descending by Ki. Enter labels, ranked according to the request.
2, 3, 1
(2: 53.5 nM, 3: 10.2 nM, 1: 0.18 nM)

These data points were gathered from patent US20250179047A1.
